B1: glmS ribozyme (parent)
chain: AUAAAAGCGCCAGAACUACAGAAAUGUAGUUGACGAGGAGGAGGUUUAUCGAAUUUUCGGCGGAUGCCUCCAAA

variants of: B1; assay: self-cleavage kobs at 2500 uM GlcN6P; higher = faster cleavage; RNA array; settings: with glucosamine-6-phosphate
Variants at the floor of the assay were thinned out.
observed_property: self-cleavage kobs at 2500 uM GlcN6P

Study these solved cases before continuing.
# mutation_descriptor, self-cleavage kobs at 2500 uM GlcN6P
rows = [
    ("A15U C16G C58U G59U", "< 1e-05 s⁻¹"),
    ("C8G A33U U46A U69G", "< 1e-05 s⁻¹"),
    ("A15C G37U G40C", "< 1e-05 s⁻¹"),
    ("G29C C34A", "< 1e-05 s⁻¹"),
    ("A6U A52G C67G", "0.000425 s⁻¹"),
]

In one line, give reported self-cleavage kobs at 2500 uM GlcN6P of the entry G41U U47G .
0.000364 s⁻¹

These measurements were taken from the supplement of paper PMC7125110.
